# Target: JAK3 kinase domain (JH1) (Homo sapiens)
# Construct: recombinant purified His or GST-tagged catalytic domain for each enzyme
# Sequence (P52333 822-1111 limits assumed): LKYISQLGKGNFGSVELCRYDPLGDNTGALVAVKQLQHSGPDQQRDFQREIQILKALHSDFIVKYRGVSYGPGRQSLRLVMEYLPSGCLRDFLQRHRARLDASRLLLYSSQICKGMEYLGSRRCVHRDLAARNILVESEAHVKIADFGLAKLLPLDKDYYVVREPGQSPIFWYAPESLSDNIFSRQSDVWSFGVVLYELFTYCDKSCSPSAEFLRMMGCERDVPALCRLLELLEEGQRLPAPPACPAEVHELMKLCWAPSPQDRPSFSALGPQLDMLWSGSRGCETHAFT
# Experimental protocol: HTRF-based selectivity assay, JAK3 catalytic domain
# Condition parameters: 2.12 μM ATP
# Procedure: Example B-2: HTRF-Based Selectivity Assay The ability of compounds to inhibit the activity of JAK1, JAK2, JAK3 and TYK2 is measured using a recombinant purified His or GST-tagged catalytic domain for each enzyme (JAK1, JAK2 and TYK2 are generated in-house; JAK3 was purchased from Carna biosciences, Cat #08-046) in an HTRF format biochemical assay. The reactions employs a commercial peptide substrate from Cisbio (Cat #62TK0PEC). […]
pIC50: −log10 of the molar value.
Provide the reported pIC50 of each item.

Reported pIC50 of [2H]C([2H])([2H])NC(=O)c1nnc(NC(=O)C2CC2)cc1Nc1cccc2c1N(C)Cc1cn(C)nc1-2 [Compound 15] : < 6.00

According to the records, this molecule [2H]C([2H])([2H])NC(=O)c1cnc(NC(=O)C2CC2)nc1Nc1cccc2c1N(C)Cc1cn(C)nc1-2 [Compound 22] displays pIC50 of < 6.00

Notebook: CNC(=O)c1nnc(NC(=O)C2CC2)cc1Nc1cccc2c1OCc1cn(C)nc1-2 [Compound 2] , pIC50 read as < 6.00

Sure, the documented pIC50 for CNC(=O)c1nnc(NC(=O)C2CC2)cc1Nc1cccc2c1OCc1cnn(C)c1-2 [Compound 50] is < 6.00

pIC50 reported for this molecule [2H]C([2H])([2H])NC(=O)c1nnc(NC(=O)C2CC2)cc1Nc1cccc2c1N(C)Cc1cn(C([2H])([2H])[2H])nc1-2 [Compound 20] : < 6.00

Per the record, Cn1cc2c(n1)-c1cccc(Nc3cc(Nc4ccc(F)cn4)nnc3C(N)=O)c1OC2 [Compound 8] has pIC50 of < 6.00

Please fill in: pIC50 reported for CNC(=O)c1nnc(Nc2ccc(F)cn2)cc1Nc1cccc2c1OCc1cn(C)nc1-2 [Compound 1] = < 6.00

Measured pIC50, [2H]C([2H])([2H])NC(=O)c1cnc(NC(=O)C2CC2)cc1Nc1cccc2c1N(C)Cc1cn(C)nc1-2 [Compound 14] : < 6.00

The molecule listed as [2H]C([2H])([2H])NC(=O)c1cnc(N2CCN(C(C)C)C2=O)cc1Nc1cccc2c1N(C)Cc1cn(C)nc1-2 [Compound 61] shows pIC50 equal to < 6.00

// [2H]C([2H])([2H])NC(=O)c1cnc(NC(=O)C2CC2)cc1Nc1cccc2c1N(C)Cc1c[nH]nc1-2 [Compound 23] : pIC50 value = < 6.00

The molecule identified as [2H]C([2H])([2H])NC(=O)c1cnc(NC(=O)C2CC2)cc1Nc1cccc2c1N(C)Cc1cnn(C)c1-2 [Compound 51] registered its pIC50 at < 6.00

Reported pIC50 of COC(=O)c1cnc(NC(=O)C2CC2)cc1Nc1cccc2c1N(C)Cc1cn(C)nc1-2 [Compound 60] : < 6.00

The molecule identified as [2H]C([2H])([2H])NC(=O)c1cnc(Nc2cc(C)nc(C)n2)cc1Nc1cccc2c1N(C)Cc1cn(C)nc1-2 [Compound 16] registered its pIC50 at < 6.00

In plain terms, Cn1cc2c(n1)-c1cccc(Nc3cc(NC(=O)C4CC4)nc4[nH]n(C)c(=O)c34)c1OC2 [Compound 88] has a documented pIC50 of < 6.00

molecule [2H]C([2H])([2H])NC(=O)c1cnc(Nc2ccc(F)cn2)cc1Nc1cccc2c1OCc1cn(C)nc1-2 [Compound 7] , pIC50 observed: < 6.00
